# Assay Name: Photostability (photooxidation kinetics) of free dyes under 780 nm LED
# Assay type: physicochemical
# Details: buffer, pH 7.4
# Protocol: Stock solutions of 5 mM FNIR-Tag and IRDye®-800CW in DMSO were diluted into 50 mM PBS (pH=7.4) to afford 1 μM solutions. The photostability was determined using a procedure described previously using a 780 nm+/−20 nm LED at a light intensity of 20 mW/cm^2 (Nani et al., ACS Central Sci 2017, 3:329). […] As expected both of the free dyes have similar photostability.
Value Kind: half-life at 1 μM
Please state the number and follow it with the unit.

Entry under review: COCCOCCOCCN1/C(=C/C=C2\CCCC(/C=C/C3=[N+](CCOCCOCCOC)c4ccc(S(=O)(=O)[O-])cc4C3(C)C)=C2OCCC[N+](C)(C)CCCC(=O)ON2C(=O)CCC2=O)C(C)(C)c2cc(S(=O)(=O)[O-])ccc21 . Reported half-life at 1 μM?
16.2 min
